# procedure text: Inhibition of HCV NS3 ATPase activity using [32gamma]ATP as substrate after 30 mins by thin layer chromatography analysis in the presence of poly(U)RNA
# Set-up: species or system Hepacivirus hominis
quantity: IC50 (µM)
// units = µM; emit number, no label

# IC50 of CC1=C(CC/C(C)=C/CCC2=CC[C@H](C3=CC(=O)O[C@H]3O)O[C@H]2O)C(C)(C)CCC1 [MANOALIDE] = 70
